system: UO-31 renal; test: NCI-60 one-dose screen, 48 h (100 = growth as untreated, 0 = no growth, -100 = all killed); details: 10 µM unless noted
This is part of a sample that, as a whole, favours compounds with a hit. Of some 83,000 tested, about 20% had one in any assay. Active and inactive are the calls of the source. The calls were made as follows: active = growth percent below 10; inactive = the rest.
QUANTITY KIND: growth

O=C(CCc1nnc(Cn2cnc3nc[nH]c3c2=O)o1)c1nc2ncccc2[nH]1: 80.8% (inactive)

Fill in growth for each of the 2 molecules listed.
1. COC1C[C@H](O[C@@H]2C[C@H](O[C@@H]3C[C@H](O[C@@H]4C(=O)c5c(cc6cc(O[C@H]7C[C@@H](O[C@H]8C[C@@H](O)[C@H](O)C(C)O8)[C@H](O)C(C)O7)c(C)c(O)c6c5O)C[C@H]4C(OC)C(=O)[C@@H](O)[C@@H](C)O)OC(C)[C@H]3O)OC(C)[C@@H]2O)OC(C)[C@@H]1O (stereo partly drawn)
2. Cc1cc(Cl)ccc1Nc1nc(C(F)(F)F)ccc1C(=O)N/N=C/c1ccc([N+](=O)[O-])cc1

Response:
1: 5.02% (active); 2: -27.1% (active)

----------
test system: RPMI-8226 leukemia; assay: NCI-60 one-dose screen, 48 h; settings: 10 µM unless noted
About 83,000 compounds went through this panel and 20% of them were active in at least one assay; those are over-represented in the sample as a whole. Calls of active or inactive are those of the source. The calls were made as follows: active = growth percent below 10; inactive = the rest.
Choose the fitting class; nothing outside active, inactive is accepted.

Take a look at these entries with their results.
Cc1nc2sc(C(=O)Nc3ccccc3)c(N)c2cc1C(=O)c1ccccc1: inactive
Cn1c(O)c(C=NCCN=Cc2c(O)n(C)c(=O)n(C)c2=O)c(=O)n(C)c1=O: inactive

Request: Test call, this compound: N#C/C(=C\c1ccc(-c2ccc(Cl)cc2)o1)C(=O)Nc1ncc(Cc2ccc(Cl)cc2)s1
Response: inactive

Request: Test call, this compound: C#CCOc1cccc(Nc2ncnc3ccc(NC(=O)CCl)cc23)c1
Response: active

Request: Test call, this compound: CCCCCOc1ccc(C(=O)/C(Br)=C/C(=O)O)cc1
Response: inactive

Request: Test call, this compound: CCOC(=O)c1nc(Nc2ccc(NC(=O)Nc3ccc(F)cc3)cc2)c2ccccc2n1
Response: inactive

Request: Test call, this compound: CC(C)CCNC(=O)Cn1cccc(NC(=O)OCc2ccccc2)c1=O
Response: inactive

Request: Test call, this compound: COc1cc(/C=C\c2cc(/C=C\c3ccc(O)c(OC)c3)n(C(=O)COc3ccc(Cl)cc3Cl)n2)ccc1O
Response: active

Request: Test call, this compound: O=C(Cc1ccccc1)Nc1nc(O)c(/C=C2\C(=O)C=Cc3ccccc32)s1
Response: inactive

Request: Test call, this compound: CCCCCCCCn1ccc2cc(NC(=O)CN3CCN(c4nc(C)cc(Cl)n4)CC3)ccc21
Response: inactive

Request: Test call, this compound: N#Cc1cnc(NCCc2ccncc2)nc1-n1cnc2ccccc21
Response: inactive

Request: Test call, this compound: CCc1ccc(C(=O)/C=C/C23c4ccccc4C(c4ccccc42)C2C(=O)NC(=O)C23)cc1 (centres undefined)
Response: active

Request: Test call, this compound: O=S(=O)(Nc1ccc(Cl)cc1)c1ccc(-c2cnc(C3CC3)o2)cc1
Response: inactive

Request: Test call, this compound: O=C(NCc1ccccc1)Nc1ccccc1CNc1nc(Nc2ccc(OCCN3CCCC3)cc2)ncc1Cl
Response: inactive

Request: Test call, this compound: Cc1ccc2c3c(c(=O)[nH]c2c1)C1(C(C#N)=C(N)O3)c2cc(Br)ccc2-c2ccc(Br)cc21
Response: inactive

Request: Test call, this compound: CN(C)CCNC(=O)c1cccc(-c2cnc3ccc(-c4ccc5c(c4)OCO5)nn23)c1
Response: inactive

Request: Test call, this compound: NC(=O)c1c(NC(=O)c2ccccc2)sc2c1CCC(=O)C2
Response: active

Request: Test call, this compound: COCCn1cc(-c2nc(-c3cc4cccnc4n3CCOC)cs2)c2cc(OC)ccc21
Response: inactive

Request: Test call, this compound: CCCCCCNC(=O)Oc1ccc(/C(=C(/C)Cc2ccc(OC)cc2)c2ccc(OCCCN(C)C)cc2)cc1
Response: active

Request: Test call, this compound: COc1ccc(-c2nc(/C=C3\SC(=NCc4ccccc4)NC3=O)c3ccccn23)cc1
Response: active

Request: Test call, this compound: Cc1ccc2c(n1)C(=O)c1[nH]c3ccccc3c1C2=O
Response: inactive

Request: Test call, this compound: C[C@@H]1CCC[C@H]1CC(N)C(=O)O (some centres undefined)
Response: inactive

Request: Test call, this compound: CC1=C(Nc2ccc(N3CCN(C)CC3)cc2)C(=O)c2cncnc2C1=O
Response: inactive

Request: Test call, this compound: CCOC(=O)c1c2c(n3ccc(C)cc13)C(=O)c1ccccc1C2=O
Response: inactive
